Ratio of PDL1:CD28 listing for selected binders.
Target: T1, human PD-L1 (CD274), full-length, expressed on the surface of CHO cells (human, UniProt Q9NZQ7 19-290)
T1 construct: also called huPD-L1; B7-H1
T1 sequence (Q9NZQ7 19-290): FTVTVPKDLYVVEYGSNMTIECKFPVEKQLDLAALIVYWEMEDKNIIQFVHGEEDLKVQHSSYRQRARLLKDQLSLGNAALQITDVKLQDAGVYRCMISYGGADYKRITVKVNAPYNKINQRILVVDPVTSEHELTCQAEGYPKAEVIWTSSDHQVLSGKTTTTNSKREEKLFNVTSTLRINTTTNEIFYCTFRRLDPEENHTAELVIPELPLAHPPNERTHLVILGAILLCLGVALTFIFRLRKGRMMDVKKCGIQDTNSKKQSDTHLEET
Assay: flow cytometry; MFI on PD-L1 CHO cells over MFI on Jurkat cells (CD28)
Write the answer as a number in ratio, unit excluded.

// worked examples, Ratio of PDL1:CD28 included
variant CD80 IgV-Fc V22A/R29H/E35D/D46E/M47I (Fc fusion, not shown: a dimerising Fc or GST) VIHVTKEVKEVATLSCGHNVSAEELAQTHIYWQKDKKMVLTMMSGEINIWPEYKNRTIFDITNNLSIVILALRPSDEGTYECVVLKYEKDAFKREHLAEVTLSVKAD	79
variant CD80 IgV-Fc E35D/M47V/A71G/L85M/L97Q (Fc fusion, not shown: a dimerising Fc or GST) VIHVTKEVKEVATLSCGHNVSVEELAQTRIYWQKDKKMVLTMMSGDVNIWPEYKNRTIFDITNNLSIVILGLRPSDEGTYECVVMKYEKDAFKREHQAEVTLSVKAD	182
variant CD80 IgV-Fc Q33L/E35D/M47L/A71G/F92S (Fc fusion, not shown: a dimerising Fc or GST) VIHVTKEVKEVATLSCGHNVSVEELAQTRIYWLKDKKMVLTMMSGDLNIWPEYKNRTIFDITNNLSIVILGLRPSDEGTYECVVLKYEKDASKREHLAEVTLSVKAD	77
variant CD80 IgV-Fc Q33L/E35D/M43I/L85Q/R94W (Fc fusion, not shown: a dimerising Fc or GST) VIHVTKEVKEVATLSCGHNVSVEELAQTRIYWLKDKKMVLTMISGDMNIWPEYKNRTIFDITNNLSIVILALRPSDEGTYECVVQKYEKDAFKWEHLAEVTLSVKAD	107
variant CD80 IgV-Fc H18Y/E35D/V68M/L97Q (Fc fusion, not shown: a dimerising Fc or GST) VIHVTKEVKEVATLSCGYNVSVEELAQTRIYWQKDKKMVLTMMSGDMNIWPEYKNRTIFDITNNLSIMILALRPSDEGTYECVVLKYEKDAFKREHQAEVTLSVKAD	407
variant CD80 IgV-Fc E35D/M47V/T62A/A71G/V83A/Y87H/L97M (Fc fusion, not shown: a dimerising Fc or GST) VIHVTKEVKEVATLSCGHNVSVEELAQTRIYWQKDKKMVLTMMSGDVNIWPEYKNRTIFDIANNLSIVILGLRPSDEGTYECAVLKHEKDAFKREHMAEVTLSVKAD	255
variant CD80 IgV-Fc Q33L/E35D/N48K/L85Q/L97Q (Fc fusion, not shown: a dimerising Fc or GST) VIHVTKEVKEVATLSCGHNVSVEELAQTRIYWLKDKKMVLTMMSGDMKIWPEYKNRTIFDITNNLSIVILALRPSDEGTYECVVQKYEKDAFKREHQAEVTLSVKAD	162
variant CD80 IgV-Fc Q33L/E35D/M47L/V68M/L85Q/E88D (Fc fusion, not shown: a dimerising Fc or GST) VIHVTKEVKEVATLSCGHNVSVEELAQTRIYWLKDKKMVLTMMSGDLNIWPEYKNRTIFDITNNLSIMILALRPSDEGTYECVVQKYDKDAFKREHLAEVTLSVKAD	476
variant CD80 IgV-Fc H18Y/Y31H/E35D/M47V/A71G/L85Q (Fc fusion, not shown: a dimerising Fc or GST) VIHVTKEVKEVATLSCGYNVSVEELAQTRIHWQKDKKMVLTMMSGDVNIWPEYKNRTIFDITNNLSIVILGLRPSDEGTYECVVQKYEKDAFKREHLAEVTLSVKAD	285

Now take the following binder into account.
Input line: Any idea what Ratio of PDL1:CD28 was measured for variant CD80 IgV-Fc E35D/D46E/M47V/L97Q (Fc fusion, not shown: a dimerising Fc or GST) VIHVTKEVKEVATLSCGHNVSVEELAQTRIYWQKDKKMVLTMMSGEVNIWPEYKNRTIFDITNNLSIVILALRPSDEGTYECVVLKYEKDAFKREHQAEVTLSVKAD ?
Output line: 52
